# System name: Tyrosine-protein kinase JAK2 (Homo sapiens)
# Sequence (O60674 whole entry): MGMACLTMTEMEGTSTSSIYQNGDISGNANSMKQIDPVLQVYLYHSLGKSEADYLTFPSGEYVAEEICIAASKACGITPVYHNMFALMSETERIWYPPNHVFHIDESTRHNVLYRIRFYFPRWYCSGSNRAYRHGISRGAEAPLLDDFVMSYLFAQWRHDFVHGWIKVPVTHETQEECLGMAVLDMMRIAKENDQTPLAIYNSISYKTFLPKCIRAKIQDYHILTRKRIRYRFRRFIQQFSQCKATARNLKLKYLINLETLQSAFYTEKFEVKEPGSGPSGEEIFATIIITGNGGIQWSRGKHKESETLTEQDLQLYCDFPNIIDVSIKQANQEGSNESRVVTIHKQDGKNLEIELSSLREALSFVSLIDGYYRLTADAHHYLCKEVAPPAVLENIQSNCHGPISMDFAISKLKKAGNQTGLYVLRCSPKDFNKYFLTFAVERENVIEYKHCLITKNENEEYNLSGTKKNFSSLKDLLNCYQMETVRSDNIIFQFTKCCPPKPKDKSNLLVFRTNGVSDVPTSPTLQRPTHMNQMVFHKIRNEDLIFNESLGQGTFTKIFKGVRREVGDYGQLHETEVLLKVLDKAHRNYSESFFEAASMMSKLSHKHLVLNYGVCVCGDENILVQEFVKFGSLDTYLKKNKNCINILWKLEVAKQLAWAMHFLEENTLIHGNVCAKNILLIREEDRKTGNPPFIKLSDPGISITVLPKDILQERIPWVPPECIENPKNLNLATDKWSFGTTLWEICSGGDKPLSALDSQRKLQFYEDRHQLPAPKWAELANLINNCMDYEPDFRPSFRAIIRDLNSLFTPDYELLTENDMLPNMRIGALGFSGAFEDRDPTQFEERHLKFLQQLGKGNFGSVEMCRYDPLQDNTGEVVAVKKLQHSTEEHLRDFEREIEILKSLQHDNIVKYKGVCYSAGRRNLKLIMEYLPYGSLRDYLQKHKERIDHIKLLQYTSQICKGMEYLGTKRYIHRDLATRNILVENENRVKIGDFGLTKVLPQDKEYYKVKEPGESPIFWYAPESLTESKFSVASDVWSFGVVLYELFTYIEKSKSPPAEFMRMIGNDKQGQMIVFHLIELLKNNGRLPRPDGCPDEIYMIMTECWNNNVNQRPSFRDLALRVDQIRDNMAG
# Assay text: Inhibition of recombinant human JAK2 (808 to end residues) KTFCGTPEYLAPE as substrate measured after 40 mins in presence of [gamm33P]ATP by scintillation counting based radiometry assay
What pIC50 was measured for each of the following?
Units for pIC50: none; it is -log10 of a concentration expressed in mol/L.

Param readout= pIC50; system= Tyrosine-protein kinase JAK2 (Homo sapiens); entry= `Cc1cnc(Nc2ccc3c(c2)CCN3C(=O)CN2CCS(=O)(=O)CC2)nc1-c1cnn(C(C)C)c1` ; returns value. 8.52

Request: pIC50, test system Tyrosine-protein kinase JAK2 (Homo sapiens), entry `N#CCCn1cc(-c2nc(Nc3ccc4c(c3)CCN4S(=O)(=O)C(F)(F)F)ncc2F)cn1` 6.71

What pIC50 appears in the records for this compound with Tyrosine-protein kinase JAK2 (Homo sapiens)? `Cc1cnc(Nc2ccc3c(c2)CCN3S(=O)(=O)c2ccc(C(F)(F)F)cc2)nc1-c1cnn(C2CCC2)c1` 6.79

###

# Organism: Homo sapiens
# Assay text: Selectivity index, ratio of IC50 for inhibition of recombinant human JAK2 (808 to end residues) to IC50 for inhibition of recombinant human TYK2 (875 to end residues)
Can you tell me Selectivity Index for the items I'm about to list?

Which value of Selectivity Index has been reported for `CCCS(=O)(=O)N1CCc2cc(Nc3ncc(C)c(-c4cnn(C(C)C)c4)n3)ccc21` in the records? < 1

Selectivity Index for `Cc1cnc(Nc2ccc3c(c2)CCN3C(=O)[C@H]2CCCN2)nc1-c1cnn(C(C)C)c1` ? < 1

Record request: Selectivity Index value, item `Cc1cnc(Nc2ccc3c(c2)CCN3S(=O)(=O)c2ccc3c(c2)CC(=O)N3C)nc1-c1cnn(C(C)C)c1` < 1

###

# System name: Non-receptor tyrosine-protein kinase TYK2 (Homo sapiens, UniProt P29597)
# Sequence (P29597 whole entry): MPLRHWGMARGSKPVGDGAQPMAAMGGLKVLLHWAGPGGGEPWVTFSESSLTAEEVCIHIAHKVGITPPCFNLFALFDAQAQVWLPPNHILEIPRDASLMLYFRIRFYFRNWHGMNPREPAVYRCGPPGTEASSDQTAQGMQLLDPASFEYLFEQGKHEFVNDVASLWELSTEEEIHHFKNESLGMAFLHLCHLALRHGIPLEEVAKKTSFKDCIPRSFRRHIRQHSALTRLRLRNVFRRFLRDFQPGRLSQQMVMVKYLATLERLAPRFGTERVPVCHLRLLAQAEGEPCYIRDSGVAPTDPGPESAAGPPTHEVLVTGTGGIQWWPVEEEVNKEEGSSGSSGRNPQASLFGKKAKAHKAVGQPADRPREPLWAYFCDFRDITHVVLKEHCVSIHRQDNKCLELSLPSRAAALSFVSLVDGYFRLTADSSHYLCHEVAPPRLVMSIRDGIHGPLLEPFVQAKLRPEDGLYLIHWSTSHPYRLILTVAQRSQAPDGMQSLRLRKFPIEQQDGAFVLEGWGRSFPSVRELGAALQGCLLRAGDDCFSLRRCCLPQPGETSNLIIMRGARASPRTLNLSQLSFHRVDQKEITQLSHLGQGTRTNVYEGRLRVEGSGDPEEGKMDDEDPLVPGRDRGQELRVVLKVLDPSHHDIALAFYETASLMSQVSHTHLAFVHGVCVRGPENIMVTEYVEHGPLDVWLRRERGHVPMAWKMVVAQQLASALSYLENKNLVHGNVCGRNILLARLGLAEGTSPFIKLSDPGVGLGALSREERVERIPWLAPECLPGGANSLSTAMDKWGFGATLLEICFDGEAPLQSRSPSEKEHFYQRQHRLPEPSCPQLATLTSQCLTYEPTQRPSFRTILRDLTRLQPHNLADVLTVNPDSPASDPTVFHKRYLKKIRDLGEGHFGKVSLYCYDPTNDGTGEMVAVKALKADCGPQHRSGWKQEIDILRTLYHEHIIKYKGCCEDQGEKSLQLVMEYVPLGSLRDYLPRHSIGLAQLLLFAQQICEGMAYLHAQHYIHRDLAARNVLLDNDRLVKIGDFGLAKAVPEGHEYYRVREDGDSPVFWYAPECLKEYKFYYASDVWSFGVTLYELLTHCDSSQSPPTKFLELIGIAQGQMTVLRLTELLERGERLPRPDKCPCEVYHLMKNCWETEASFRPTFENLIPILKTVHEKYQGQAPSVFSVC
# Assay text: Inhibition of recombinant human TYK2 (875 to end residues) using GGMEDIYFEFMGG as substrate incubated for 40 mins in presence of [gamma33P]ATP by scintillation counting based radiometry assay
Quantity name: pIC50
A value of pIC50 is the negative decimal logarithm of a concentration given in moles per litre.

Endpoint output: pIC50 of `COc1ccc(S(=O)(=O)N2CCc3cc(Nc4ncc(C)c(-c5cnn(C(C)C)c5)n4)ccc32)cc1` . Value? 8.11

What pIC50 value was documented for this compound, `N#CCCn1cc(-c2nc(Nc3ccc4c(c3)CCN4C(=O)C3(C#N)CC3)ncc2F)cn1` ? 8.22

Quick one: pIC50 for `Cc1cnc(Nc2ccc3c(c2)CCN3C(=O)Cc2ccc(OC(F)(F)F)cc2)nc1-c1cnn(C(C)C)c1` ? 7.29

What value of pIC50 has been reported for the following compound? `Cc1cnc(Nc2ccc3c(c2)CCN3S(=O)(=O)c2ccc(C(F)(F)F)cc2)nc1-c1cnn(C(C)C)c1` 7.80

Look at this compound and give its reported pIC50. `N#CCCn1cc(-c2nc(Nc3ccc4c(ccn4C(=O)C4CC4)c3)ncc2F)cn1` 6.82

Recorded pIC50 for `Cc1cnc(Nc2ccc3c(c2)CCN3S(=O)(=O)c2ccc(C(F)(F)F)cc2)nc1-c1cnn(C2CC2)c1` , please? 7.22

May I ask what pIC50 has been recorded for `Cc1cnc(Nc2ccc3c(c2)CCN3C(=O)[C@H]2CCCN2)nc1-c1cnn(C(C)C)c1` ? 8.30

Given the compound `Cc1cnc(Nc2ccc3c(c2)CCN3C(=O)[C@@H](O)CO)nc1-c1cnn(C(C)C)c1` , what is its reported pIC50? 7.96

Report pIC50 for `Cc1cnc(Nc2ccc3c(c2)CCN3C(=O)[C@H]2CCCN2C(=O)C2(C#N)CC2)nc1-c1cnn(C(C)C)c1` please. 8.69

Given the entry `CC(C)(C)c1ccc(C(=O)N2CCc3cc(Nc4ncc(F)c(-c5cnn(CCC#N)c5)n4)ccc32)cc1` , report its measured pIC50. 7.40

Given the entry `Cc1cnc(Nc2ccc3c(c2)CCN3S(=O)(=O)c2ccc3c(c2)CC(=O)N3C)nc1-c1cnn(C(C)C)c1` , report its measured pIC50. 7.20

Look up pIC50 for this compound: `Cc1cnc(Nc2ccc(NS(=O)(=O)c3ccc(C(F)(F)F)cc3)c(F)c2)nc1-c1cnn(C(C)C)c1` 7.89

# query: pIC50 of entry `Cc1cnc(Nc2ccc3c(c2)CCN3C(=O)c2cccc(C(F)(F)F)c2)nc1-c1cnn(C(C)C)c1` 7.84

Recorded pIC50 of `Cn1ccc2cc(Nc3ncc(F)c(-c4cnn(CCC#N)c4)n3)ccc21` , please. 7.74

So what does the record say about pIC50 for `Cc1cnc(Nc2ccc3c(c2)CNC3=O)nc1-c1cnn(CCC#N)c1` ? 9.17

Need pIC50 of `Cc1cnc(Nc2ccc3c(c2)CCN3S(=O)(=O)C2CC2)nc1-c1cnn(C(C)C)c1` , thanks. 8.57

Given the compound `N#CCCn1cc(-c2nc(Nc3ccc4c(c3)CNC4=O)ncc2F)cn1` , what is its reported pIC50? 8.15

Param item = `CC(=O)N1CCc2cc(Nc3ncc(C)c(-c4cnn(C(C)C)c4)n3)ccc21` ; retrieve measured pIC50. 8.74

Source of measurements: ChEMBL document CHEMBL4825658
